- Measurement Target: human GLP-1 receptor (GLP-1R), expressed on CHO-K1 cells (human, UniProt P43220 24-463)
- Experiment Notes: cell-based or functional assay
Numbered stars: 1 amine (or outer) side, 2 acyl side, 3 side chain; on linkers, the order of the positions; unused ones are H or OH. Square brackets hold non-standard residues; d marks the D form. Primed or numbered codes have the meaning given here. Side chains are listed from the residue outwards. Ends that are not written are not given here. * marks the point of attachment. C18″ = C18 fatty acid moiety (of 2OEG-γGlu-C18, K*); γGlu = O=C(O)[C@H](CCC(=O)[*:2])N[*:1]; AEEA = NCCOCCOCC(=O)O; Aib = CC(C)(N)C(=O)O
For each entry below, report its Relative % to non-lipidated peptide value.
Please state the figure in %; there is no need to write the unit.

Y[Aib]QGTFTSDYSKYLDYMMQRDFVQWLIEGGPSSGAPPPSC-NH2 [Peptide No. 5-2] yielded Relative % to non-lipidated peptide of 100

Per the records, this binder ( Y[Aib]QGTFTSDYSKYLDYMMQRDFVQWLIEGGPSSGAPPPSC-NH2 (not fully specified (residue 40)) [Peptide No. 5-2A] ) has Relative % to non-lipidated peptide equal to 29

get_value(item= Y[Aib]QGTFTSDYSKLLDYMMQRDFVQWLLEGGPSSGAPPPSC-NH2 [Peptide No. 5-3] , readout=Relative % to non-lipidated peptide) returns 100

The binder listed as Y[Aib]QGTFTSDYSK([AEEA-AEEA-γGlu-C18″])LLDYMMQRDFVQWLLEGGPSSGAPPPS-NH2 [Peptide No. 5-3D] has a reported Relative % to non-lipidated peptide of 19

Memo: Y[Aib]QGTFTSDYSKYLDYMMARDFVQWLIEGGPSSGAPPPSC-NH2 [Peptide No. 5-1] , reported Relative % to non-lipidated peptide: 100
